Test system: ryegrass, Italian (Lolium multiflorum)
ASSAY_EXPLANATION: Test A postemergence, Italian ryegrass
Assay type: in vivo
CONDITIONS_USED: 125 g ai/ha, visual injury, 0 to 100 scale (0 no effect, 100 complete control), approximately 10 days
ENDPOINT_LABEL: Plant response rating, Ryegrass, Italian

[[record]]
compound = "O=C1NCC(c2cccc(OCc3ccco3)c2)C1C(=O)Nc1ccccc1F (centres unmarked)"
endpoint_label = "Plant response rating, Ryegrass, Italian"
data_value = 0

[[record]]
compound = "O=C1NCC(c2cccc(Cn3cccn3)c2)C1C(=O)Nc1ccccc1F (centres unmarked)"
endpoint_label = "Plant response rating, Ryegrass, Italian"
data_value = 0

[[record]]
compound = "O=C1NCC(c2cccc(COc3ccccc3)c2)C1C(=O)Nc1ccc(F)c(F)c1F (centres unmarked)"
endpoint_label = "Plant response rating, Ryegrass, Italian"
data_value = 0

[[record]]
compound = "CN1CC(c2cccc(Oc3ncc(F)cc3F)c2)C(C(=O)Nc2ccc(F)c(F)c2F)C1=O (single isomer, unassigned)"
endpoint_label = "Plant response rating, Ryegrass, Italian"
data_value = 30

[[record]]
compound = "O=C1NCC(c2cccc(OCC3CC3)c2)C1C(=O)Nc1ccc(F)cc1F (centres unmarked)"
endpoint_label = "Plant response rating, Ryegrass, Italian"
data_value = 0

[[record]]
compound = "CN1C[C@H](c2cccc(Oc3ccc(F)cn3)c2)[C@@H](C(=O)Nc2ccc(F)c(F)c2F)C1=O"
endpoint_label = "Plant response rating, Ryegrass, Italian"
data_value = 70

[[record]]
compound = "C[Si](C)(C)C#Cc1cccc(C2CNC(=O)C2C(=O)Nc2cccc(F)c2F)c1 (centres unmarked)"
endpoint_label = "Plant response rating, Ryegrass, Italian"
data_value = 0

[[record]]
compound = "O=C1NCC(c2cccc(OCC3CC3)c2)C1C(=O)Nc1cccc(F)c1F (centres unmarked)"
endpoint_label = "Plant response rating, Ryegrass, Italian"
data_value = 20


The values you see were collected from patent US10405547B2.
